# target_system: T1, cynomolgus monkey CD8 alpha on primary cynomolgus CD8+ T cells (cynomolgus monkey, UniProt P01732 23-235 (human entry))
# T1 construct: also called Cyno CD8alpha; cyno CD8A
# T1 sequence (P01732 other isoform, or with tags, fused parts or gaps limits assumed): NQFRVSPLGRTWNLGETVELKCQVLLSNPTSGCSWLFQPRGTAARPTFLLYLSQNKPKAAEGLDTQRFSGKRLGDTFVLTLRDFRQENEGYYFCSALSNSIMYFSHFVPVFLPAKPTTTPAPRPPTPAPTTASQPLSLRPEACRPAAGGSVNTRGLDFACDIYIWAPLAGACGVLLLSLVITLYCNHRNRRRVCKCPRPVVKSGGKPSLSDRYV
# test_description: flow cytometry, cyno CD8+ T cells
assay_metric: Cyno T-cell Binding 0.2 uM (MFI)

binder	value_units	experimental_value
P283GR7P1367_F5 (designed binder, FN3 domain) LPAPKNLVVSRVTEDSARLSWTAPDAAFDSFDIAYPEWPTDGEAIVLTVPGSERSYDLTGLKPGTEYFVIIYGVKGGALSRPLSAIFTT	MFI	2050

a: P283DR9P1364_C10 (designed binder, FN3 domain) LPAPKNLVVSRVTEDSARLSWTAPDAAFDSFQIAYPEWPKDGEAIVLTVPGSERSYDLTGLKPGTEYAVFIWGVKGGVYSNPLSAIFTT
b: P283FR9P1366_B7 (designed binder, FN3 domain) LPAPKNLVVSRVTEDSARLSWTAPDAAFDSFWITYPEWPVNGEAIVLTVPGSERSYDLTGLKPGTEYWVVIWGVKGGVESPPLSAIFTT
Incoming: Would you mind telling me which has the lower recorded Cyno T-cell Binding 0.2 uM (MFI) between a and b ? Pick one; state its label.
Outgoing: a
(a: 2710 MFI, b: 4670 MFI)
